All values here come from patent US20170145113A1.

Assay System: T1, His-tagged human HtrA1 protease domain (human, UniProt Q92743 161-367)
T1 construct: His-tagged protease domain; also called huHtrA1-PD-His; huHtrA1-PD
T1 sequence (Q92743 other isoform, or with tags, fused parts or gaps limits assumed): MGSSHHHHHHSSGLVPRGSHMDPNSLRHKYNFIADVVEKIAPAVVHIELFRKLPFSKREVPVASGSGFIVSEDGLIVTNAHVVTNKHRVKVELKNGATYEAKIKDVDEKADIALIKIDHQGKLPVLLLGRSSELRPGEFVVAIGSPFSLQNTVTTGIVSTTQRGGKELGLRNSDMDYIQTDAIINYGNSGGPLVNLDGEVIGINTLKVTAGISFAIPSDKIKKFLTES
Experimental Details: BIACORE SPR, single-cycle kinetics; Fab analyte over captured human HtrA1
Endpoint Label: kon (M⁻¹ s⁻¹)

Binder: AG (Fab, V domains shown, single member of the group m42; also called h15H6.v2 HC-D55A HC-G56 Fab) VH: EVQLVQSGAEVKKPGASVKVSCKASGYTFTDSEMHWVRQAPGQGLEWIGGVDPETAGAAYNQKFKGRATITRDTSTSTAYLELSSLRSEDTAVYYCTRGYDYDYALDYWGQGTLVTVSS VL: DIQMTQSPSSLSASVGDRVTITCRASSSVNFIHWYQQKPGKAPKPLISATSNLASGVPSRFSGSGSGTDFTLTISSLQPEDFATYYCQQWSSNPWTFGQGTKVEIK
Endpoint Label: kon
Recorded Result: 460000

Binder: h15H6.v2 Fab (Fab, V domains shown, Tested as Fab; also called parent; parental Fab) VH: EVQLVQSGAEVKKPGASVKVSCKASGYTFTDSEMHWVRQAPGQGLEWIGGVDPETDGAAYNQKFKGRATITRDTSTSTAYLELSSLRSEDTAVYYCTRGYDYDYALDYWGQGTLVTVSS VL: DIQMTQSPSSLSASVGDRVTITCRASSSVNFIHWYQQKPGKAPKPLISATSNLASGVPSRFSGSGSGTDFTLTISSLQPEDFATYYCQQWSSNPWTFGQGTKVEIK
Endpoint Label: kon
Recorded Result: 430000

Binder: h15H6.v2 HC-D55E HC-G56 Fab (Fab, V domains shown, Produced as Fab; also called EG) VH: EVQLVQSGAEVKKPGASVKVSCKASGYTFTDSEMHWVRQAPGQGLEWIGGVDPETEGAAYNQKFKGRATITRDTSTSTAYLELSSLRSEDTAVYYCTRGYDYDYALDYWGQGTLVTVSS VL: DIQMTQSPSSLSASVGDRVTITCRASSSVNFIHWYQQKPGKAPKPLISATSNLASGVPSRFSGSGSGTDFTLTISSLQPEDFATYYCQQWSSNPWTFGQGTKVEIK
Endpoint Label: kon
Recorded Result: 380000

Binder: DA (Fab, V domains shown, single member of the group m42; also called h15H6.v2 HC-D55 HC-G56A Fab) VH: EVQLVQSGAEVKKPGASVKVSCKASGYTFTDSEMHWVRQAPGQGLEWIGGVDPETDAAAYNQKFKGRATITRDTSTSTAYLELSSLRSEDTAVYYCTRGYDYDYALDYWGQGTLVTVSS VL: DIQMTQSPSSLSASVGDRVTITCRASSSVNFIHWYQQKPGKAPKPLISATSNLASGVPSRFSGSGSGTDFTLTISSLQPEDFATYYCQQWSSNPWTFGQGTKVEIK
Endpoint Label: kon
Recorded Result: 320000
